Provenance of the data: PubChem BioAssay (NCI)

Assay comment: NCI Yeast Anticancer Drug Screen. Data for the cln2 rad14 strain (AID 165);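 note: 0% = growth equal to vehicle treated cultures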
Measurement context: S. cerevisiae cln2 rad14 strain, at 50.0 µM, stronger effect = higher value
About 79,000 compounds went through this panel and 15% of them were active in at least one assay; those are over-represented in the sample as a whole.
Reported endpoint: growth inhibition (%)
Write it as a number; the unit % goes unstated.

Here are 3 compounds together with their reported answers.
{"Compound": "Oc1cc(Cl)c(O)c(Cl)c1", "growth inhibition [%]": -37.9}
{"Compound": "C/C=C1/CN2CCC34c5ccccc5N(C)C23C2CC1C4(C(=O)OC)C(O)O2 (stereo not drawn)", "growth inhibition [%]": -4.2}
{"Compound": "O=C=Nc1ccccc1Cl", "growth inhibition [%]": 5.45}

Ask: # query: growth inhibition of entry CCOC(=O)/C=C1\Nc2ccccc2C(c2ccccc2)=NC1OC(C)=O (stereo not drawn)
Result: 23.6

Ask: # query: growth inhibition of entry [CH3][Sn]([CH3])([CH3])[O]C(=O)C(O)c1ccccc1 (stereo not drawn)
Result: 9.4

* * *

Assay comment: NCI Yeast Anticancer Drug Screen. Data for the rad50 strain (AID 155);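 note: 0% = growth of vehicle-only cultures of the same strain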
Measurement context: S. cerevisiae rad50 strain growth inhibition; at 5.0 µM (retest, dose inferred, filed as 0.5)
About 79,000 compounds went through this panel and 15% of them were active in at least one assay; those are over-represented in the sample as a whole. Active and inactive are the calls of the source. Rule as the data show it: active = growth inhibition above about 70%; inactive = the rest.
Classes to choose from: y (active), n (inactive)

{"Compound": "O=C1C(Cl)=C(Cl)C(=O)c2ccccc21", "Label value": "y"}
{"Compound": "CCC[CH2][Sn]([CH2]CCC)([O]C(=O)CCC(C)=O)[O]C(=O)CCC(C)=O", "Label value": "y"}
{"Compound": "C1CC[N-]CC1.C1CC[N-]CC1.N#C[S-].N#C[S-].[Cd]", "Label value": "n"}
{"Compound": "O=C(CCl)OCc1ccccc1", "Label value": "n"}
{"Compound": "C[CH2][Sn]([CH2]C)[O][Sn]([Cl])([CH2]C)[CH2]C", "Label value": "n"}

Ask: Returns: the outcome recorded for CCCCSc1ccc(C(SCCN(CC)CC)c2ccccc2)cc1 (stereo not given) in this assay.
Result: n

Ask: Returns: the outcome recorded for Cc1cc(N(CCCl)CCCl)ccc1CN1CCCN(Cc2ccc(N(CCCl)CCCl)cc2C)C1c1ccc(N(CCCl)CCCl)cc1 in this assay.
Result: n

Ask: Returns: the outcome recorded for CC(=O)O.[RuH].c1ccc([PH+](c2ccccc2)c2ccccc2)cc1.c1ccc([PH+](c2ccccc2)c2ccccc2)cc1.c1ccc([PH+](c2ccccc2)c2ccccc2)cc1 in this assay.
Result: n

Ask: Returns: the outcome recorded for O=[n+]1c2ccccc2n([O-])c2ccccc21.[Cl][Cu][Cl] in this assay.
Result: y

Ask: Returns: the outcome recorded for CC12OOC(c3ccccc31)c1c2ccc2ccccc12 (stereo not given) in this assay.
Result: n

Ask: Returns: the outcome recorded for C(#C[PH+](c1ccccc1)c1ccccc1)c1ccccc1.C(#C[PH+](c1ccccc1)c1ccccc1)c1ccccc1.C(#C[PH+](c1ccccc1)c1ccccc1)c1ccccc1.[C-]#[O+].[C-]#[O+].[C-]#[O+].[Cr] in this assay.
Result: n

Ask: Returns: the outcome recorded for CC(=O)C(CN(CC(C)C)CC(C)C)C(c1ccccc1)c1c(O)c2ccccc2oc1=O (stereo not given) in this assay.
Result: n

Ask: Returns: the outcome recorded for CN(C=O)NC(=O)N(CCCl)N=O in this assay.
Result: n

Ask: Returns: the outcome recorded for O=C(CBr)Nc1ccc(Cl)cc1 in this assay.
Result: y

Ask: Returns: the outcome recorded for C[C@H]1CC[C@@]2(NC1)O[C@H]1C[C@H]3[C@@H]4CC[C@H]5C[C@@H](O)CC[C@]5(C)[C@H]4CC[C@]3(C)[C@H]1[C@@H]2C in this assay.
Result: n

* * *

Assay comment: NCI Yeast Anticancer Drug Screen. Data for the mlh1 rad18 strain (AID 175)
Measurement context: S. cerevisiae mlh1 rad18 strain growth inhibition; at 50.0 µM (retest, dose inferred, filed as 5.0); stronger effect = higher value
Procedure: Growth inhibition of yeast strains with defined genetic alterations is measured as a screen for potential anti-cancer activity. Selected strains with alterations in DNA damage repair or cell cycle control were exposed to compounds and growth inhibition was measured relative to vehicle treated controls. The strain used in this assay is mlh1 rad18
This is part of a sample that, as a whole, favours compounds with a hit. Of some 79,000 tested, about 15% had one in any assay.
Reported endpoint: growth inhibition (%)
Write it as a number; the unit % goes unstated.

Here are 4 molecules together with their reported answers.
{"Molecule": "CCCCCCCCCCCCCCCCCC[N+](C)(C)C (tested in a mixture with another compound)", "growth inhibition (%)": 99}
{"Molecule": "c1ccc([As+](c2ccccc2)(c2ccccc2)c2cccc3ccccc23)cc1", "growth inhibition (%)": 99}
{"Molecule": "CC/C(=C/c1ccc(OC)cc1)[N+](=O)[O-]", "growth inhibition (%)": 99}
{"Molecule": "COc1ccc(NN=O)nc1", "growth inhibition (%)": 29}

Ask: # query: growth inhibition of entry CCCCCCCCN1CCN(CCCCCCCC)C2CCCCC21 (stereo not given) (tested in a mixture with another compound)
Result: 96

* * *

Assay comment: NCI Yeast Anticancer Drug Screen. Data for the bub3 strain (AID 167)
Measurement context: S. cerevisiae bub3 mutant strain, at 50.0 µM, stronger effect = higher value
This is part of a sample that, as a whole, favours compounds with a hit. Of some 79,000 tested, about 15% had one in any assay.
Listed here: items and their measured growth inhibition.
Write it as a number; the unit % goes unstated.

{"Compound": "CC(COC(=O)NCc1ccc(Cl)cc1Cl)OC(N)=O (stereo unspecified)", "growth inhibition / %": -5}

Ask: # query: growth inhibition of entry COC(=O)c1ccc([As]=O)cc1N (stereo unspecified)
Result: 98.8

Ask: # query: growth inhibition of entry O=C1c2ccccc2C[CH]1[Hg][Cl] (stereo unspecified)
Result: 98.7

Ask: # query: growth inhibition of entry Cn1c(=O)c2ncnnc2n(C)c1=O
Result: 36.8

Ask: # query: growth inhibition of entry O=C([O-])CC(=O)[O-].[NH-][C@@H]1CCCC[C@H]1[NH-].[Pt+4]
Result: -24.5

Ask: # query: growth inhibition of entry [C-]#[O+].[C-]#[O+].[CH3][Sn]([CH3])[c]1ccccc1.[Fe+5].[c-]1[c-][c-][cH-][c-]1
Result: 98

Ask: # query: growth inhibition of entry COC1CC(C)C(OC)C2=CC(=O)C=C(NC(=O)/C(C)=C/C=C\C(C)C(OC(N)=O)/C(C)=C\C(C)C1OC)C2=O (stereo unspecified)
Result: 91.1

Ask: # query: growth inhibition of entry Cn1ccnc1C[N-]Cc1nccn1C.O=[N+]([O-])[O-].O=[N+]([O-])[O-].[Cu+2]
Result: -5.35

Ask: # query: growth inhibition of entry CCOC(CNCc1cccnc1)OCC
Result: -13.7

* * *

Assay comment: NCI Yeast Anticancer Drug Screen. Data for the cln2 rad14 strain (AID 165);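 note: 0% = growth equal to vehicle treated cultures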
Measurement context: S. cerevisiae cln2 rad14 strain, at 50.0 µM (retest, dose inferred, filed as 5.0), stronger effect = higher value
Procedure: Growth inhibition of yeast strains with defined genetic alterations is measured as a screen for potential anti-cancer activity. Selected strains with alterations in DNA damage repair or cell cycle control were exposed to compounds and growth inhibition was measured relative to vehicle treated controls. The strain used in this assay is cln2 rad14
Compounds without any hit were thinned out: in the full panel of roughly 79,000, 15% have a hit.
Reported endpoint: growth inhibition (%)
Write it as a number; the unit % goes unstated.

Here are 5 compounds together with their reported answers.
{"Compound": "CCCCCCCCCCC(=O)O.[Pb]", "growth inhibition, %": -1}
{"Compound": "CC1CCN(C(CC(=O)c2ccccc2)C(=O)c2ccccc2)CC1 (centres undefined)", "growth inhibition, %": 99}
{"Compound": "CC(C)CCC(=O)OC1CCC2(C)C(=CCC3C2CCC2(C)C(O)CCC32)C1 (centres undefined)", "growth inhibition, %": 5}
{"Compound": "O=C(Nc1ccccc1)c1cc([N+](=O)[O-])ccc1O.[Ni]", "growth inhibition, %": 100}
{"Compound": "[I][Hg][CH2]C1OCCOC1[CH2][Hg][I] (centres undefined)", "growth inhibition, %": 4}

Ask: # query: growth inhibition of entry CCCNC1=C(C)C(=O)C2=C(C1=O)[C@H](COC(N)=O)[C@]1(OC)[C@@H]3N[C@@H]3CN21
Result: 79

Ask: # query: growth inhibition of entry CN(C)CCBr
Result: 84

Ask: # query: growth inhibition of entry CN(Cc1ccccc1)CC(O)c1cccc(I)c1 (centres undefined)
Result: 11

Ask: # query: growth inhibition of entry O=C(O)c1cccc2cccc(C(=O)O)c12.[Hg]
Result: 99

Ask: # query: growth inhibition of entry [N-]=[N+]=NS(=O)(=O)c1ccccc1S(=O)(=O)N=[N+]=[N-]
Result: 99

Ask: # query: growth inhibition of entry Nc1c([N+](=O)[O-])cc(Cl)cc1[N+](=O)[O-]
Result: 28

Ask: # query: growth inhibition of entry O=C(O)c1ccccc1.[Zn+2]
Result: -21

Ask: # query: growth inhibition of entry COc1ccc(/C=C\[N+](=O)[O-])cc1OC
Result: 99

Ask: # query: growth inhibition of entry O=[N+]([O-])c1ccc(NP(=S)(Nc2ccc([N+](=O)[O-])cc2)c2ccccc2)cc1
Result: 88
